Entry source: patent US10336731B2

measurement target: hIDO1 (Homo sapiens (Human), UniProt P14902)
Sequence (P14902 whole entry): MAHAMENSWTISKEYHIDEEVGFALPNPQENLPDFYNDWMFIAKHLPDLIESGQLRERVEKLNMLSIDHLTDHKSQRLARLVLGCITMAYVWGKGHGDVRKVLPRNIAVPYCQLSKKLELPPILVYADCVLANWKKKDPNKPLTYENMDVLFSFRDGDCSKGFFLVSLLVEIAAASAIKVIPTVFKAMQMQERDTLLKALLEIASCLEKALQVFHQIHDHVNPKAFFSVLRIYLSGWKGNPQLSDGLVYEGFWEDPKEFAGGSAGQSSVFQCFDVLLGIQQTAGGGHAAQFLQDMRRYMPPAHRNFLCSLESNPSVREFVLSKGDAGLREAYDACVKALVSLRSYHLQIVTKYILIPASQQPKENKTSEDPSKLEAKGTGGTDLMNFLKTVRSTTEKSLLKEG
assay text: IDO1 cellular assay in HEK293 cells transiently expressing hIDO1
cond: HEK293 cell line transiently expressing hIDO1, n=1
observed property: IC50 (nM)
Kindly provide the numeric value in nM only, without the unit symbol.

Return reported IC50; argument: C[C@@H]1C[C@]1(NC(=O)c1cc2cc(C#N)ccc2[nH]1)c1cnn(C)c1 (stereo in doubt) [Compound 12]
202

* * *

measurement target: IDO (SKOV-3 cells) (Homo sapiens (Human))
assay text: IDO cell-based assay (kynurenine production in IFNγ-induced SKOV-3 cells)
cond: IFNγ 500 ng/ml, 500 μM L-Trp, 48 h, read-out: pIC50, IDO cellular assay (SKOV3) (converted)
Parameter IC50: see the listing below.

Solved cases (3 shown):
Return reported IC50; argument: C[C@H]1C[C@@]1(NC(=O)c1cc2cc(Cl)ccc2[nH]1)c1cnn(-c2ccc(F)cc2)c1 (single isomer, unassigned) [Compound 11, enantiomer 2]
10 nM

Return reported IC50; argument: CCc1nn(C)cc1C1(NC(=O)c2cc3cc(Cl)ccc3[nH]2)CC1
89.1 nM

Return reported IC50; argument: C[C@H]1C[C@@]1(NC(=O)c1cc2cc(C#N)ccc2[nH]1)c1cnn(-c2ccccc2)c1 (single isomer, unassigned) [Compound 9, enantiomer 1]
77.6 nM

---
Return reported IC50; argument: O=C(NC1(c2cnn(-c3ccccc3)c2)CC1)c1cc2cc(Cl)ccc2[nH]1
91.2 nM

Return reported IC50; argument: C[C@H]1C[C@@]1(NC(=O)c1cc2cc(Cl)ccc2[nH]1)c1cnn(-c2ccc(Cl)cc2)c1 (single isomer, unassigned) [Compound 10, enantiomer 2]
11.7 nM

Return reported IC50; argument: C[C@H]1C[C@@]1(NC(=O)c1cc2cc(C#N)ccc2[nH]1)c1cnn(-c2ccccc2)c1 (single isomer, unassigned) [Compound 9, enantiomer 2]
43.7 nM

Return reported IC50; argument: Cn1cc(C2(NC(=O)c3cc4cc(Br)ccc4[nH]3)CC2)cn1 [REF 3, reference compound]
182 nM
